- System: cotton
- test-description: Phytotoxicity test for upland field crops (foliar treatment test)
- Assay type: in vivo
- Design: key: 0 (no harm); 9 (complete withered)
- condition-context: 100 g ai/ha, Cotton (14 days after treatment)
# Foliar treatment phytotoxicity, Cotton annotations
quantity-measured: Foliar treatment phytotoxicity, Cotton

1. CCOC(=O)OC(C)N(C(=O)c1ccc(C(F)(F)F)nc1COCc1nnn(C)n1)c1nnnn1C (centres unmarked) ... 0
2. Cc1nc(COCc2nc(C(F)(F)F)ccc2C(=O)Nc2nnnn2C)nn1C ... 2
3. Cn1nnnc1COCc1nc(C(F)(F)F)ccc1C(=O)Nc1nnnn1C ... 7
4. Cn1nnc(COCc2nc(C(F)(F)F)ccc2C(=O)N(C(=O)c2ccccc2)c2nnnn2C)n1 ... 9
5. COC(=O)OC(C)N(C(=O)c1ccc(C(F)(F)F)nc1COCc1nnn(C)n1)c1nnnn1C (centres unmarked) ... 0
6. Cn1nnc(CSCc2nc(C(F)(F)F)ccc2C(=O)Nc2nnnn2C)n1 ... 0
7. Cn1nc(COCc2nc(C(F)(F)F)ccc2C(=O)Nc2nnnn2C)nc1C#N ... 8
8. Cn1ncnc1COCc1nc(C(F)(F)F)ccc1C(=O)Nc1nnnn1C ... 9

---

- Tested on: soybean
- test-description: Phytotoxicity test for upland field crops (foliar treatment test)
- Assay type: in vivo
- condition-context: 100 g ai/ha, Soybean (7 days after treatment)
# Foliar treatment phytotoxicity, Soybean >= 6 gives satisfied, anything below gives not satisfied

1. Cn1nnnc1COc1nc(C(F)(F)F)ccc1C(=O)Nc1nnnn1C [Compound No. 1-1] ... satisfied
2. Cc1nc(COCc2nc(C(F)(F)F)ccc2C(=S)Nc2nnnn2C)nn1C [Compound No. 2-117] ... not satisfied
3. Cn1nnc(CSCc2nc(C(F)(F)F)ccc2C(=O)Nc2nnnn2C)n1 [Compound No. 2-102] ... not satisfied
4. CN(Cc1nnn(C)n1)c1nc(C(F)(F)F)ccc1C(=O)Nc1nnnn1C [Compound No. 2-26] ... not satisfied
5. COC(=O)OC(C)N(C(=O)c1ccc(C(F)(F)F)nc1COCc1nnn(C)n1)c1nnnn1C (stereo not drawn) [Compound No. 4-4] ... not satisfied
6. Cn1nnc(COCc2nc(C(F)(F)F)ccc2C(=O)Nc2nnnn2C)n1 [Compound No. 2-59] ... not satisfied
7. Cn1nnnc1COCc1nc(C(F)(F)F)ccc1C(=O)Nc1nnnn1C [Compound No. 1-61] ... not satisfied
8. CON(Cc1nnn(C)n1)Cc1nc(C(F)(F)F)ccc1C(=O)Nc1nnnn1C [Compound No. 2-97] ... satisfied
9. Cn1nc(COCc2nc(C(F)(F)F)ccc2C(=O)Nc2nnnn2C)nc1Cl [Compound No. 2-135] ... not satisfied
10. Cn1nnnc1NC(=O)c1ccc(C(F)(F)F)nc1OCc1nnnn1C(F)F [Compound No. 1-26] ... not satisfied
11. Cc1nc(COCc2nc(C(F)(F)F)ccc2C(=O)Nc2nnnn2C)nn1C [Compound No. 2-116] ... not satisfied
12. CCOC(=O)OC(C)N(C(=O)c1ccc(C(F)(F)F)nc1COCc1nnn(C)n1)c1nnnn1C (stereo not drawn) [Compound No. 4-8] ... not satisfied
13. COC(=O)OC(C)N(C(=O)c1ccc(C(F)(F)F)nc1COCc1ncn(C)n1)c1nnnn1C (stereo not drawn) [Compound No. 4-1] ... not satisfied
14. Cn1nc(COCc2nc(C(F)(F)F)ccc2C(=O)Nc2nnnn2C)nc1C#N [Compound No. 2-134] ... not satisfied
15. Cn1nc(COCc2nc(C(F)(F)F)ccc2C(=O)Nc2nnnn2C)nc1Br [Compound No. 2-136] ... not satisfied
16. Cn1ncnc1COc1nc(C(F)(F)F)ccc1C(=O)Nc1nnnn1C [Compound No. 1-45] ... satisfied

---

- System: wheat
- test-description: Phytotoxicity test for upland field crops (foliar treatment test)
- Format: in vivo
- Parameters: key: 0 (no harm); 9 (complete withered)
- condition-context: 100 g ai/ha, Wheat (7 days after treatment)
- Protocol: Experimental Example 3: Phytotoxicity Test for Upland Field Crops (Foliar Treatment Test) Foliar treatment was performed for grown crops and weeds in a square plastic pot having a surface area of 50 cm^2 filled with horticultural soil. As a fertilizer per pot, 0.5 g of horticultural mixed fertilizer (N:P:K=17:21:17) was treated by mixing in the upper soil. […]
Attribute: Foliar treatment phytotoxicity, Wheat
quantity-measured: Foliar treatment phytotoxicity, Wheat

1. CCn1nnc(COCc2nc(C(F)(F)F)ccc2C(=O)Nc2nnnn2CC)n1 [Compound No. 2-88] ... 0
2. CCn1nnc(COCc2nc(C(F)(F)F)ccc2C(=O)Nc2nnnn2C)n1 [Compound No. 2-87] ... 0
3. Cn1nnnc1NC(=O)c1ccc(C(F)(F)F)nc1COCc1nc(S(C)(=O)=O)n(C)n1 [Compound No. 2-132] ... 3
4. Cn1cnc(COCc2nc(C(F)F)ccc2C(=O)Nc2nnnn2C)n1 [Compound No. 2-85] ... 2

---

Readings of Foliar treatment phytotoxicity, Soybean for the listed compounds
- Tested on: soybean
- test-description: Phytotoxicity test for upland field crops (foliar treatment test)
- Format: in vivo
- Parameters: key: 0 (no harm); 9 (complete withered)
- condition-context: 100 g ai/ha, Soybean (14 days after treatment)
quantity-measured: Foliar treatment phytotoxicity, Soybean

1. Cn1nnnc1COc1nc(C(F)(F)F)ccc1C(=O)Nc1nnnn1C ... 9
2. Cn1nnc(COCc2nc(C(F)(F)F)ccc2C(=S)Nc2nnnn2C)n1 ... 8
3. Cc1nc(COCc2nc(C(F)(F)F)ccc2C(=S)Nc2nnnn2C)nn1C ... 6
4. Cn1nnnc1CSc1nc(C(F)(F)F)ccc1C(=S)Nc1nnnn1C ... 7
5. Cn1cnc(COCc2nc(C(F)F)ccc2C(=O)Nc2nnnn2C)n1 ... 7
6. Cc1nc(COCc2nc(C(F)(F)F)ccc2C(=O)Nc2nnnn2C)nn1C ... 5
7. Cn1ncnc1COc1nc(C(F)(F)F)ccc1C(=O)Nc1nnnn1C ... 9
8. Cn1nc(COCc2nc(C(F)(F)F)ccc2C(=O)Nc2nnnn2C)nc1Br ... 6

---

Measured pest or weed control at 75 g/ha by item
- System: indian jointvetch
- test-description: Herbicidal activity test against upland field weeds (foliar treatment test)
- Type: in vivo
- condition-context: 75 g ai/ha, scale 0-100
quantity-measured: pest or weed control at 75 g/ha (%)

1. CN(Cc1nnn(C)n1)c1nc(C(F)(F)F)ccc1C(=O)Nc1nnnn1C ... 90
2. CN(CCc1nnn(C)n1)c1nc(C(F)(F)F)ccc1C(=O)Nc1nnnn1C ... 60
3. CN(Cc1ncn(C)n1)c1nc(C(F)(F)F)ccc1C(=O)Nc1nnnn1C ... 80
4. CCN(Cc1nnn(C)n1)c1nc(C(F)(F)F)ccc1C(=O)Nc1nnnn1C ... 70
5. CN(CCOCc1nnn(C)n1)c1nc(C(F)(F)F)ccc1C(=O)Nc1nnnn1C ... 60

---

- Test system: soybean
- test-description: Phytotoxicity test for upland field crops (foliar treatment test)
- Format: in vivo
- condition-context: 100 g ai/ha, Soybean (14 days after treatment)
Kind request: treat 5 as inclusive, so Foliar treatment phytotoxicity, Soybean at 5 or higher is 1 (yes), anything lower is 0 (no).

1. Cn1nc(COCc2nc(C(F)(F)F)ccc2C(=O)Nc2nnnn2C)nc1C#N ... 1 (yes)
2. Cn1nnnc1COCc1nc(C(F)(F)F)ccc1C(=O)Nc1nnnn1C ... 1 (yes)
3. Cn1nnc(COCc2nc(C(F)F)ccc2C(=O)Nc2nnnn2C)n1 ... 1 (yes)
4. COC(=O)OC(C)N(C(=O)c1ccc(C(F)(F)F)nc1COCc1ncn(C)n1)c1nnnn1C (centres unmarked) ... 1 (yes)
5. Cn1nnc(CSCc2nc(C(F)(F)F)ccc2C(=O)Nc2nnnn2C)n1 ... 0 (no)
6. Cn1nnc(COCc2nc(C(F)(F)Cl)ccc2C(=O)Nc2nnnn2C)n1 ... 1 (yes)

---

Measured Soil treatment phytotoxicity, Cotton, listed per entry.
- System: cotton
- test-description: Phytotoxicity test for field crops (soil treatment test)
- Assay type: in vivo
- condition-context: 50 g ai/ha; Cotton (10 days after treatment)
quantity-measured: Soil treatment phytotoxicity, Cotton

1. Cn1nnnc1NC(=O)c1ccc(C(F)(F)F)nc1Sc1nnnn1C ... 1
2. Cn1cnc(COCc2nc(C(F)F)ccc2C(=O)Nc2nnnn2C)n1 ... 0
3. Cn1nnc(CSCc2nc(C(F)(F)F)ccc2C(=O)N(C(=O)c2ccccc2)c2nnnn2C)n1 ... 0
4. Cn1nnnc1COCc1nc(C(F)(F)F)ccc1C(=O)Nc1nnnn1C ... 1
5. COc1nc(COCc2nc(C(F)(F)F)ccc2C(=O)Nc2nnnn2C)nn1C ... 0

---

Recorded Foliar treatment herbicidal activity, velvet leaf, one value per entry.
- Test system: velvetleaf
- test-description: Herbicidal activity test against upland field weeds (foliar treatment test)
- Assay type: in vivo
- Design: key: 0 (no control); 100 (complete control)
- condition-context: 50 g ai/ha, scale 0-100
quantity-measured: Foliar treatment herbicidal activity, velvet leaf

1) Cn1nnnc1COc1nc(C(F)(F)F)cc(Cl)c1C(=O)Nc1nnnn1C [Compound No. 1-13] ... 0
2) Cn1nnc(CN(OCc2ccccc2)c2nc(C(F)(F)F)ccc2C(=O)Nc2nnnn2C)n1 [Compound No. 2-29] ... 0
3) CCOC(=O)OC(C)N(C(=O)c1ccc(C(F)(F)F)nc1COCc1nnn(C)n1)c1nnnn1C (centres unmarked) [Compound No. 4-8] ... 100
4) CCCn1nnnc1NC(=O)c1ccc(C(F)(F)F)nc1COCc1nc(C(F)F)n(C)n1 [Compound No. 2-124] ... 60
5) CON(Cc1nc(C(F)(F)F)ccc1C(=O)Nc1nnnn1C)Cc1ncnn1C [Compound No. 1-91] ... 100
6) COC(=O)OC(C)N(C(=O)c1ccc(C(F)(F)F)nc1COCc1nnn(C)n1)c1nnnn1C (centres unmarked) [Compound No. 4-4] ... 100
7) CON(Cc1nnn(C)n1)c1nc(C(F)(F)F)ccc1C(=O)Nc1nnnn1C [Compound No. 2-30] ... 100
8) CC(OC(=O)OC1CCCCC1)N(C(=O)c1ccc(C(F)(F)F)nc1COCc1nnn(C)n1)c1nnnn1C (centres unmarked) [Compound No. 4-11] ... 100
